Values were extracted from patent US9783509B2.

assay: log P by reversed-phase HPLC analogously to OECD Guideline 117; assay type: physicochemical; details: [a] acidic range, pH 2.7, formic acid (or trifluoroacetic acid)/acetonitrile
Measured property: LogP[a]

Cc1ccc(-n2ncc(=O)n(C)c2=O)cc1[S+]([O-])CC(F)(F)F (racemic) [compound 24] :: 1.84
Cc1cc(C)c([S+]([O-])CC(F)(F)F)cc1-n1ncc(=O)n(CC(F)(F)F)c1=O (racemic) [compound 6] :: 2.73
Cc1cc(F)c(-n2ncc(=O)n(CC#N)c2=O)cc1[S+]([O-])CC(F)(F)F (racemic) [compound 44] :: 2.02
